Tested on: Caco-2 monolayer bidirectional permeability, LC-MS/MS
Assay: Inhibitors of Cruzain: Efflux Ratio Profiling
Details: hits give low values
Recorded metric: efflux ratio
Response field accepts a number only; no unit should be typed.

For Caco-2 monolayer bidirectional permeability, LC-MS/MS, provide efflux ratio of Cc1ccc(OCCn2c(CCNC(=O)C3CCCCC3)nc3ccccc32)cc1 please.
1.1
